Origin of measurements: patent US11072581B2

# System tested: EcoVRS (valyl-tRNA synthetase from Escherichia coli) (Escherichia coli, UniProt P07118)
# Construct: made in house; host or cells: Escherichia coli M15
# Sequence (P07118 whole entry): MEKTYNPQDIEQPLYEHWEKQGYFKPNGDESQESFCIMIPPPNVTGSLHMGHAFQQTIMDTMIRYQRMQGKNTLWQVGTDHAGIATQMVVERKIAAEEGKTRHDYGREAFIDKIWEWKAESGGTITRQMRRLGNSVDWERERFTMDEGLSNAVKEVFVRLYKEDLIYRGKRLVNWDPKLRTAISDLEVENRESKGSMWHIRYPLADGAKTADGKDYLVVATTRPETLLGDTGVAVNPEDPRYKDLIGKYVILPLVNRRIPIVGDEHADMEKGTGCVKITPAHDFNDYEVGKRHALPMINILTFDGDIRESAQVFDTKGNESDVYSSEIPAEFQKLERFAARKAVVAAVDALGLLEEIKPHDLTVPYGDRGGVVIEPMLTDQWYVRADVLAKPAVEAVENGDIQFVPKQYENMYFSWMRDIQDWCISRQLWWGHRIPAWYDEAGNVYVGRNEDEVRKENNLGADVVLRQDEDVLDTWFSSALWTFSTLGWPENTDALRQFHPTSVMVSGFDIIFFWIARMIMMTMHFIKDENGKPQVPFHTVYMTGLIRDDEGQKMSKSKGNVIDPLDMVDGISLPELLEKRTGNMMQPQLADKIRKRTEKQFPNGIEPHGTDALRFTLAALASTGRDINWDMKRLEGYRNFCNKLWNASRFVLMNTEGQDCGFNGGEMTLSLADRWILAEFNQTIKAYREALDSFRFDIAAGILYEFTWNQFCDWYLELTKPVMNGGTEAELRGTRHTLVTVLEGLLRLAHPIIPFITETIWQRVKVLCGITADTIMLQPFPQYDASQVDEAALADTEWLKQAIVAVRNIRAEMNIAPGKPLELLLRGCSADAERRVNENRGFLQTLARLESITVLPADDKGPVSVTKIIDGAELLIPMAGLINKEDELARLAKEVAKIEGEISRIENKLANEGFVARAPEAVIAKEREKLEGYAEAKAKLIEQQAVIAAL
# Assay protocol: aaRS aminoacylation assay (ATP consumption), EcoVRS
# Assay type: biochemical
# Protocol conditions: i.a. = inactive at a concentration below 50 uM
Counter-ions that a name gives are not always drawn.
Measured endpoint: IC50 EcoVRS

# annotated cases, reported IC50 EcoVRS shown
Compound: CCCCc1ccc(S(=O)(=O)NC(=O)[C@@H](N)CC(C)C)cc1
Measured endpoint: IC50 EcoVRS
Endpoint value: i.a

Compound: CCc1cc(-c2cccc(S(=O)(=O)NC(=O)[C@@H](N)CC(C)C)c2)nc(N)n1
Measured endpoint: IC50 EcoVRS
Endpoint value: i.a.

Compound: CC(C)C[C@H](N)C(=O)NS(=O)(=O)c1cccc(-c2ccnc(O)n2)c1
Measured endpoint: IC50 EcoVRS
Endpoint value: i.a.

Compound: CC[C@H](C)[C@H](N)C(=O)NS(=O)(=O)c1cccc(-c2cc(C)nc(N)n2)c1
Measured endpoint: IC50 EcoVRS
Endpoint value: i.a.

Compound: CC(C)C[C@H](N)C(=O)NS(=O)(=O)c1cccc(-c2cc(N)ncn2)c1
Measured endpoint: IC50 EcoVRS
Endpoint value: i.a.

Compound: CC(C)C[C@H](N)C(=O)NS(=O)(=O)c1cccc(-c2cc(-c3ccccc3)nc(N)n2)c1
Measured endpoint: IC50 EcoVRS
Endpoint value: i.a.

# Cc1cc(-c2cccc(S(=O)(=O)NC(=O)[C@@H](N)CC(C)C)c2)nc(N)n1 with EcoVRS (valyl-tRNA synthetase from Escherichia coli) (Escherichia coli, UniProt P07118): IC50 EcoVRS is i.a.

# CC(C)C[C@H](N)C(=O)NS(=O)(=O)c1cccc(-c2ncnc(N)n2)c1 with EcoVRS (valyl-tRNA synthetase from Escherichia coli) (Escherichia coli, UniProt P07118): IC50 EcoVRS is i.a.

# CC(C)C[C@H](N)C(=O)NS(=O)(=O)c1cccc2ccccc12 with EcoVRS (valyl-tRNA synthetase from Escherichia coli) (Escherichia coli, UniProt P07118): IC50 EcoVRS is i.a

# CC(C)C[C@H](N)C(=O)NS(=O)(=O)c1cccc(-c2cc(N)nc(N)n2)c1 with EcoVRS (valyl-tRNA synthetase from Escherichia coli) (Escherichia coli, UniProt P07118): IC50 EcoVRS is i.a.

# CC(C)C[C@H](N)C(=O)NS(=O)(=O)c1ccccc1Cl with EcoVRS (valyl-tRNA synthetase from Escherichia coli) (Escherichia coli, UniProt P07118): IC50 EcoVRS is i.a

# CC(C)C[C@H](N)C(=O)NS(=O)(=O)c1cccc2c1OCCC2 with EcoVRS (valyl-tRNA synthetase from Escherichia coli) (Escherichia coli, UniProt P07118): IC50 EcoVRS is i.a

# CNc1cc(-c2cccc(S(=O)(=O)NC(=O)[C@@H](N)CC(C)C)c2)nc(N)n1 with EcoVRS (valyl-tRNA synthetase from Escherichia coli) (Escherichia coli, UniProt P07118): IC50 EcoVRS is i.a

# Cc1cc(-c2cccc(S(=O)(=O)NC(=O)[C@@H](N)C3CC3)c2)nc(N)n1 with EcoVRS (valyl-tRNA synthetase from Escherichia coli) (Escherichia coli, UniProt P07118): IC50 EcoVRS is i.a

# Cc1cc(-c2cccc(S(=O)(=O)NC(=O)[C@@H](N)CC(C)C)c2)ncn1 with EcoVRS (valyl-tRNA synthetase from Escherichia coli) (Escherichia coli, UniProt P07118): IC50 EcoVRS is i.a.

# CC(C)C[C@H](N)C(=O)NS(=O)(=O)c1c(C(C)C)cc(C(C)C)cc1C(C)C with EcoVRS (valyl-tRNA synthetase from Escherichia coli) (Escherichia coli, UniProt P07118): IC50 EcoVRS is i.a

# Cc1cc(-c2cccc(S(=O)(=O)NC(=O)[C@@H](N)CC3CC3)c2)nc(N)n1 with EcoVRS (valyl-tRNA synthetase from Escherichia coli) (Escherichia coli, UniProt P07118): IC50 EcoVRS is i.a

# CC(C)C[C@H](N)C(=O)NS(=O)(=O)c1cccc2ccncc12 with EcoVRS (valyl-tRNA synthetase from Escherichia coli) (Escherichia coli, UniProt P07118): IC50 EcoVRS is i.a

# CC(C)C[C@H](N)C(=O)NS(=O)(=O)c1cccc(-c2cc(N(C)C)nc(N)n2)c1 with EcoVRS (valyl-tRNA synthetase from Escherichia coli) (Escherichia coli, UniProt P07118): IC50 EcoVRS is i.a

# CC(C)C[C@H](N)C(=O)NS(=O)(=O)c1cccc(-c2ccnc(N)n2)c1 with EcoVRS (valyl-tRNA synthetase from Escherichia coli) (Escherichia coli, UniProt P07118): IC50 EcoVRS is i.a.

# CC(C)C[C@H](N)C(=O)NS(=O)(=O)c1ccc(Oc2ccccc2)cc1 with EcoVRS (valyl-tRNA synthetase from Escherichia coli) (Escherichia coli, UniProt P07118): IC50 EcoVRS is i.a

# CC[C@H](C)[C@H](N)C(=O)NS(=O)(=O)c1ccc2ccccc2c1 with EcoVRS (valyl-tRNA synthetase from Escherichia coli) (Escherichia coli, UniProt P07118): IC50 EcoVRS is i.a

# Cc1cc(-c2cccc(S(=O)(=O)NC(=O)[C@@H](N)CC3CCCCC3)c2)nc(N)n1 with EcoVRS (valyl-tRNA synthetase from Escherichia coli) (Escherichia coli, UniProt P07118): IC50 EcoVRS is i.a

# CC(C)C[C@H](N)C(=O)NS(=O)(=O)c1cccc(-c2cccc(N)n2)c1 with EcoVRS (valyl-tRNA synthetase from Escherichia coli) (Escherichia coli, UniProt P07118): IC50 EcoVRS is i.a.

# CC(C)C[C@H](N)C(=O)NS(=O)(=O)c1cccc(-c2ccccc2)c1 with EcoVRS (valyl-tRNA synthetase from Escherichia coli) (Escherichia coli, UniProt P07118): IC50 EcoVRS is i.a

# CSc1cc(-c2cccc(S(=O)(=O)NC(=O)[C@@H](N)CC(C)C)c2)nc(N)n1 with EcoVRS (valyl-tRNA synthetase from Escherichia coli) (Escherichia coli, UniProt P07118): IC50 EcoVRS is i.a

# CC(C)C[C@H](N)C(=O)NS(=O)(=O)c1ccccc1-c1ccccc1 with EcoVRS (valyl-tRNA synthetase from Escherichia coli) (Escherichia coli, UniProt P07118): IC50 EcoVRS is i.a

# CC(C)C[C@H](N)C(=O)NS(=O)(=O)c1cccc2c(N(C)C)cccc12 [Compound 5.16, hydrochloride] with EcoVRS (valyl-tRNA synthetase from Escherichia coli) (Escherichia coli, UniProt P07118): IC50 EcoVRS is i.a

# CC(C)C[C@H](N)C(=O)NS(=O)(=O)c1cccc2cccnc12 with EcoVRS (valyl-tRNA synthetase from Escherichia coli) (Escherichia coli, UniProt P07118): IC50 EcoVRS is i.a
